# Measured on: T1, HRFYRLAN peptide (RNA dependent RNA polymerase) (SARS-CoV-2, UniProt P0DTD1)
# T1 chain: HRFYRLAN
# Assay summary: ITC
Readout: pKd
The scale used: pKd is minus the common logarithm of the concentration in molar units.

Request: Requested field: pKd. Item: GGTTGGTGTGGTTGG (structured_DNA) [BC 007]
Result: 4.26
